The origin of these recorded values is ChEMBL document CHEMBL1130855.

Tested on: Cricetinae gen. sp.
assay-info: Inhibitory activity against cholesterol absorption in the hamster.
Type: functional
property: Relative potency
One number for each entry.

Below, each entry is followed by its recorded Relative potency result.
| compound | property | obs-value |
| --- | --- | --- |
| C[C@@H]1CC[C@@]2(OC1)O[C@H]1C[C@H]3[C@@H]4CC[C@H]5C[C@@H](O[C@@H]6O[C@@H](CO)[C@@H](O[C@@H]7O[C@@H](COC(=O)Nc8ccccc8F)[C@@H](O)[C@H](O)[C@@H]7O)[C@H](O)[C@@H]6O)CC[C@]5(C)[C@H]4CC(=O)[C@]3(C)[C@H]1[C@@H]2C | Relative potency | 10 |
| C[C@@H]1CC[C@@]2(OC1)O[C@H]1C[C@H]3[C@@H]4CC[C@H]5C[C@@H](O[C@@H]6O[C@@H](CO)[C@@H](O[C@@H]7O[C@@H](CO)[C@@H](OC(=O)Nc8ccccc8F)[C@H](OC(=O)Nc8ccccc8F)[C@@H]7O)[C@H](O)[C@@H]6O)CC[C@]5(C)[C@H]4C(=O)C[C@]3(C)[C@H]1[C@@H]2C | Relative potency | 4 |
| C[C@@H]1CC[C@@]2(OC1)O[C@H]1C[C@H]3[C@@H]4CC[C@H]5C[C@@H](O[C@@H]6O[C@@H](COC(=O)Nc7ccccc7F)C(O[C@@H]7O[C@@H](CO)C(O)[C@H](O)C7O)[C@H](O)C6O)CC[C@]5(C)[C@H]4C(=O)C[C@]3(C)[C@H]1[C@@H]2C (stereo partly specified) | Relative potency | 280 |

# batch size: 2; output Relative potency per entry
1. C[C@@H]1CC[C@@]2(OC1)O[C@H]1C[C@H]3[C@@H]4CC[C@H]5C[C@@H](O[C@@H]6O[C@@H](CO)[C@@H](O[C@@H]7O[C@@H](C)[C@@H](O)[C@H](O)[C@@H]7O)[C@H](O)[C@@H]6O)CC[C@]5(C)[C@H]4CC(=O)[C@]3(C)[C@H]1[C@@H]2C
2. C[C@@H]1CC[C@@]2(OC1)O[C@H]1C[C@H]3[C@@H]4CC[C@H]5C[C@@H](O[C@@H]6O[C@@H](CO)[C@@H](O[C@@H]7O[C@@H](C)C[C@H](O)[C@@H]7O)[C@H](O)[C@@H]6O)CC[C@]5(C)[C@H]4CC(=O)[C@]3(C)[C@H]1[C@@H]2C

[107, 100]

Can you look up the measured Relative potency of C[C@@H]1CC[C@@]2(OC1)O[C@H]1C[C@H]3[C@@H]4CC[C@H]5C[C@@H](O[C@@H]6O[C@@H](CO)[C@@H](O[C@@H]7O[C@@H](CO)[C@@H](O)[C@H](O)[C@@H]7O)[C@H](O)[C@@H]6O)CC[C@]5(C)[C@H]4CC(=O)[C@]3(C)[C@H]1[C@@H]2C for me?
333
